Values compiled from a protein production outcome set (Wang et al. 2014).

# assay-protocol: label from the status in PepcDB records
parameter-measured: protein production

[
  {
    "primary-sequence": "MEAETKTLPLENASILSEGSLQEGHRLWIGNLDPKITEYHLLKLLQKFGKVKQFDFLFHKSGALEGQPRGYCFVNFETKQEAEQAIQCLNGKLALSKKLVVRWAHAQVKRYDHNKNDKILPISLEPSSSTEPTQSNLSVTAKIKAIEAKLKMMAENPDAEYPAAPVYSYFKPPDKKRTTPYSRTAWKSRR",
    "endpoint-value": "failed"
  },
  {
    "primary-sequence": "MASGSTQVKYLGIYQKMKQQILDGEYKINEKIPSSPILAEEFGVSVLTIKKALDLLVRDGYIIRRRGSGTVVQDWRQQEKARMIQTLTGTKAVYGSEVESKIIEFTIVGADEIIAEKLGISVGDFVYKIIRLRIIHSIPTIMEHTWMPIAVIPGVEASVLEESIYSYIQNKLGLKVGTSVVRVKGIRPDDKEKQFMNLTNQDFLMRVEQVAYLTDGRTFEYSYADHLPETFEFETVITAKSYKEA",
    "endpoint-value": "failed"
  }
]
